Assay Context: in ethanol, 323.35 K
Observed Property: solubility (mole fraction)

1) O=P(c1ccccc1)(c1ccccc1)c1cc(O)ccc1O; 0.0109

---

Assay Context: in methanol, 323.56 K
Observed Property: solubility (mole fraction)

1) O=P(c1ccccc1)(c1ccccc1)c1cc(O)ccc1O; 0.0138

---

Assay Context: in 2-ethoxyethanol, 353.14 K
Observed Property: solubility (mole fraction)

1) O=P(c1ccccc1)(c1ccccc1)c1cc(O)ccc1O; 0.0279

---

Assay Context: in water, 333.25 K
Observed Property: solubility (mole fraction)

1. O=P(c1ccccc1)(c1ccccc1)c1cc(O)ccc1O; 0.00015

---

Assay Context: in ethanol, 333.35 K
Observed Property: solubility (mole fraction)

1. O=P(c1ccccc1)(c1ccccc1)c1cc(O)ccc1O; 0.0127

---

Assay Context: in water, 297.16 K
Observed Property: solubility (mole fraction)

1. O=P(c1ccccc1)(c1ccccc1)c1cc(O)ccc1O; 0.00011

---

Assay Context: in toluene, 323.38 K
Observed Property: solubility (mole fraction)

1) O=P(c1ccccc1)(c1ccccc1)c1cc(O)ccc1O; 0.00094

---

Assay Context: in 2-ethoxyethanol, 358.06 K
Observed Property: solubility (mole fraction)

1) O=P(c1ccccc1)(c1ccccc1)c1cc(O)ccc1O; 0.0295

---

Assay Context: in 2-ethoxyethanol, 363.15 K
Observed Property: solubility (mole fraction)

1) O=P(c1ccccc1)(c1ccccc1)c1cc(O)ccc1O; 0.0316

---

Assay Context: in 2-ethoxyethanol, 303.25 K
Observed Property: solubility (mole fraction)

1. O=P(c1ccccc1)(c1ccccc1)c1cc(O)ccc1O; 0.0113

---

Assay Context: in acetone, 318.13 K
Observed Property: solubility (mole fraction)

1. O=P(c1ccccc1)(c1ccccc1)c1cc(O)ccc1O; 0.00262

---

Assay Context: in toluene, 298.25 K
Observed Property: solubility (mole fraction)

1. O=P(c1ccccc1)(c1ccccc1)c1cc(O)ccc1O; 0.00075

---

Assay Context: in 2-ethoxyethanol, 348.15 K
Observed Property: solubility (mole fraction)

1. O=P(c1ccccc1)(c1ccccc1)c1cc(O)ccc1O; 0.0252

---

Assay Context: in 2-ethoxyethanol, 299.43 K
Observed Property: solubility (mole fraction)

1) O=P(c1ccccc1)(c1ccccc1)c1cc(O)ccc1O; 0.0108

---

Assay Context: in ethanol, 328.43 K
Observed Property: solubility (mole fraction)

1) O=P(c1ccccc1)(c1ccccc1)c1cc(O)ccc1O; 0.0117

---

Assay Context: in methanol, 298.35 K
Observed Property: solubility (mole fraction)

1) O=P(c1ccccc1)(c1ccccc1)c1cc(O)ccc1O; 0.00707

---

Assay Context: in acetone, 303.26 K
Observed Property: solubility (mole fraction)

1. O=P(c1ccccc1)(c1ccccc1)c1cc(O)ccc1O; 0.00188

---

Assay Context: in methanol, 294.16 K
Observed Property: solubility (mole fraction)

1. O=P(c1ccccc1)(c1ccccc1)c1cc(O)ccc1O; 0.00625

---

Assay Context: in water, 318.15 K
Observed Property: solubility (mole fraction)

1. O=P(c1ccccc1)(c1ccccc1)c1cc(O)ccc1O; 0.00014

---

Assay Context: in ethanol, 293.95 K
Observed Property: solubility (mole fraction)

1. O=P(c1ccccc1)(c1ccccc1)c1cc(O)ccc1O; 0.00571

---

Assay Context: in toluene, 293.96 K
Observed Property: solubility (mole fraction)

1. O=P(c1ccccc1)(c1ccccc1)c1cc(O)ccc1O; 0.00071

Every entry's value here was drawn from BigSolDB 2.1.
